# Test system: PPARg:RXRa 30nM:10nM, anti-RXR (NR concentration 30 nM, RXRa partner concentration 10 nM)
# experiment: PBM binding z-score (relative to random genomic background probes); higher = stronger binding; sequences stand for … in GC…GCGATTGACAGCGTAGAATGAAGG
Entry flag: MET if PBM binding z-score reaches 2; NOT MET if it does not.

| seq.string | target.desc | label.class |
| --- | --- | --- |
| ATCTCTAGGCAACCAAGTTCAGTGAATGCCGAAC | PPARg:RXRa 30nM:10nM, anti-RXR (NR concentration 30 nM, RXRa partner concentration 10 nM) | NOT MET |
| GGAACGAGGGCATTCGAGTTGATAGTATGGCGAT | PPARg:RXRa 30nM:10nM, anti-RXR (NR concentration 30 nM, RXRa partner concentration 10 nM) | NOT MET |
| AATACAGGGTCACCAGGCCAGAGTAGGTACGAAT | PPARg:RXRa 30nM:10nM, anti-RXR (NR concentration 30 nM, RXRa partner concentration 10 nM) | MET |
| ACTTACGGGTCAACGTGGTTATAGCACGCGTATA | PPARg:RXRa 30nM:10nM, anti-RXR (NR concentration 30 nM, RXRa partner concentration 10 nM) | NOT MET |
| TAGCCTAGGTCATTCAGGGGCGAGTATAGAAAGC | PPARg:RXRa 30nM:10nM, anti-RXR (NR concentration 30 nM, RXRa partner concentration 10 nM) | NOT MET |
| CCTACTGGGTCATCAGGTCATTGATATCAACGTT | PPARg:RXRa 30nM:10nM, anti-RXR (NR concentration 30 nM, RXRa partner concentration 10 nM) | MET |
| TCTAGTAGGTTAGTCGGGGCATTCAGCCAACATA | PPARg:RXRa 30nM:10nM, anti-RXR (NR concentration 30 nM, RXRa partner concentration 10 nM) | MET |
| CCGAGTAGGTTATGGGGCAATCAGGCAACGGTGA | PPARg:RXRa 30nM:10nM, anti-RXR (NR concentration 30 nM, RXRa partner concentration 10 nM) | MET |
